Source: the RNAGym collection of RNA variant scans (doi:10.7554/elife.80360)

B1: HDV Ribozyme (parent)
chain: GGCCGGCAUGGUCCCAGCCUCCUCGCUGGCGCCGGCUGGGCAACAUUCCGAGGGGACCGUCCCCUCGGUAAUGGCGAAUGGGACCCA

- Variants of: B1
- protocol.text: self-cleavage, relative activity (ratio to wild type); higher = more cleavage; co-transcriptional
So I've got a bunch of variants here, and I need their self-cleavage values.
Answers are plain numbers.

mutant	value.type	result.number
G38A G74U	self-cleavage	0.0934

For each of the variants below, note its self-cleavage.
1. C15U U79G
2. C7G A16G
3. G31U G68C

Result:
0.703
0.0978
0.344
